Molecular target: HLA-A*33:01
Experiment: IEDB peptide-MHC binding, purified MHC/competitive/radioactivity; filed as Kd, often an IC50 or EC50 that approximates it; bounds were set here for any values at or beyond the usual limits of such assays
Details: source organism: Vaccinia virus WR
observation_type: Kd

biopolymer_sequence: EIITGNKVK
Kd: ≥ 77.7 µM

biopolymer_sequence: SLSVETITEK
Kd: ≥ 70 µM

biopolymer_sequence: GILKKLSSIK
Kd: ≥ 70 µM

biopolymer_sequence: WLSSKGLACY
Kd: ≥ 58.6 µM

biopolymer_sequence: SIHLTKTDKK
Kd: ≥ 70 µM

# per-item lookup of Kd; items listed below
1. QLDEKSSIK
2. AITPTIEDDK

["≥ 56.8 µM", "≥ 42.6 µM"]

---

Biological target: HLA-A*68:01
Assay: IEDB peptide-MHC binding, purified MHC/competitive/radioactivity; filed as Kd, often an IC50 or EC50 that approximates it; bounds were set here for any values at or beyond the usual limits of such assays
Details: source organism: Vaccinia virus WR
Task for the reader: assign each of the following sequences its reported pKd.
Numbers only, as −log10 of the molar value.

Answered examples (6):
biopolymer_sequence: MIIKHIYEQY
observed_value: 6.85
//
biopolymer_sequence: ITPDDGLGLR
observed_value: 7.16
//
biopolymer_sequence: LTMKAIEKDR
observed_value: 7.18
//
biopolymer_sequence: VIGLTTHCTK
observed_value: 7.14
//
biopolymer_sequence: NTRQLKLLEY
observed_value: 5.80
//
biopolymer_sequence: FTDISMSLYK
observed_value: 7.60

Dear colleague, could you send me pKd for each of the items below? Thanks.
1. IITPVVFYR
2. KSSSIDVDKR
3. YFTFGDTALY
4. IFREIASSMK
5. YLRNYMVIK
6. QLDEKSSIK

[10.74, 7.77, 7.30, 5.46, 5.78, 4.85]

Lab note: each sequence below needs its pKd filled in.
1. LTIKDSSNK
2. IMVASDVCK
3. EIITGNKVK

8.04
6.39
6.63

---

Target: HLA-A*03:01
Experiment: IEDB peptide-MHC binding, purified MHC/competitive/radioactivity; filed as Kd, often an IC50 or EC50 that approximates it; bounds were set here for any values at or beyond the usual limits of such assays
Conditions: source organism: Vaccinia virus WR
observation_type: Kd

Worked cases, Kd given:
biopolymer_sequence: SVEDVSAFVR
observed_value: ≥ 70.1 µM

biopolymer_sequence: MIIKHIYEQY
observed_value: ≥ 70.1 µM

biopolymer_sequence: ITPDDGLGLR
observed_value: ≥ 70.1 µM

biopolymer_sequence: EMVDELVTRK
observed_value: ≥ 70.1 µM

biopolymer_sequence: NFFTELENKK
observed_value: ≥ 61.8 µM

biopolymer_sequence: VSYEVFDDY
observed_value: ≥ 37.1 µM

biopolymer_sequence: DIICEDAMY
observed_value: ≥ 78 µM

biopolymer_sequence: EIITGNKVK
observed_value: ≥ 78 µM

Pending sequence:
Fill in reported Kd for this entry: `DSIPISELSR`
≥ 44.9 µM

---

Biological target: HLA-A*33:01
Assay: IEDB peptide-MHC binding, purified MHC/competitive/radioactivity; filed as Kd, often an IC50 or EC50 that approximates it; bounds were set here for any values at or beyond the usual limits of such assays
Conditions: source organism: Vaccinia virus WR
Give Kd for every item shown.

// known answers, use as guide
biopolymer_sequence: KIVDHIVMY
Kd: ≥ 24.8 µM
--
biopolymer_sequence: YVKNGTKGK
Kd: ≥ 65.5 µM
--
biopolymer_sequence: KLITPNYMK
Kd: ≥ 59.3 µM
--
biopolymer_sequence: EMVDELVTRK
Kd: ≥ 70 µM
--
biopolymer_sequence: DIICEDAMY
Kd: ≥ 20.2 µM

State the recorded Kd for every item in the following list.
1. VIGLTTHCTK
2. ATMLEYVRY
3. RVDIYYNGNK

["≥ 35.3 µM", "≥ 77.7 µM", "≥ 53.6 µM"]

The reported numbers originate from the Immune Epitope Database (IEDB).
